All values here come from ChEMBL document CHEMBL4002634.

# Assayed system: Carboxylic ester hydrolase (Sus scrofa)
# Assay details: Inhibition of porcine cholesterol esterase at 25 nM using para-nitrophenyl butyrate as substrate after 5 mins in presence of sodium taurocholate by spectrophotometric method relative to control
Here the recorded inhibition is given for each entry.
Please give a number only; it is taken to be in %.

Examples with answers:
INSERT INTO results (smi, recorded_endpoint, display_unit, val) VALUES
  ('O=c1cc(-c2ccc(I)cc2)oc2c1ccc1ccccc12', 'inhibition', '%', 73),
  ('O=c1cc(-c2cccc(Cl)c2)oc2c1ccc1ccccc12', 'inhibition', '%', 83),
  ('O=c1cc(-c2ccccc2)oc2c1ccc1ccccc12', 'inhibition', '%', 48),
  ('O=c1cc(-c2cccc(Br)c2)oc2c1ccc1ccccc12', 'inhibition', '%', 76),
  ('O=c1cc(-c2c(F)cccc2F)oc2c1ccc1ccccc12', 'inhibition', '%', 88);

Query :: # input compound: `O=c1cc(-c2ccc(F)cc2F)oc2c1ccc1ccccc12` ; wanted: its inhibition
Result :: 91

Query :: # input compound: `O=c1cc(-c2ccc(F)c(C(F)(F)F)c2)oc2c1ccc1ccccc12` ; wanted: its inhibition
Result :: 55

Query :: # input compound: `O=c1cc(-c2ccc(OC(F)(F)F)cc2)oc2c1ccc1ccccc12` ; wanted: its inhibition
Result :: 42

Query :: # input compound: `CC(=O)Oc1ccc(-c2cc(=O)c3ccc4ccccc4c3o2)cc1` ; wanted: its inhibition
Result :: 46
